- assay.target: STAT3 (Homo sapiens)
- Sequence (P40763 whole entry): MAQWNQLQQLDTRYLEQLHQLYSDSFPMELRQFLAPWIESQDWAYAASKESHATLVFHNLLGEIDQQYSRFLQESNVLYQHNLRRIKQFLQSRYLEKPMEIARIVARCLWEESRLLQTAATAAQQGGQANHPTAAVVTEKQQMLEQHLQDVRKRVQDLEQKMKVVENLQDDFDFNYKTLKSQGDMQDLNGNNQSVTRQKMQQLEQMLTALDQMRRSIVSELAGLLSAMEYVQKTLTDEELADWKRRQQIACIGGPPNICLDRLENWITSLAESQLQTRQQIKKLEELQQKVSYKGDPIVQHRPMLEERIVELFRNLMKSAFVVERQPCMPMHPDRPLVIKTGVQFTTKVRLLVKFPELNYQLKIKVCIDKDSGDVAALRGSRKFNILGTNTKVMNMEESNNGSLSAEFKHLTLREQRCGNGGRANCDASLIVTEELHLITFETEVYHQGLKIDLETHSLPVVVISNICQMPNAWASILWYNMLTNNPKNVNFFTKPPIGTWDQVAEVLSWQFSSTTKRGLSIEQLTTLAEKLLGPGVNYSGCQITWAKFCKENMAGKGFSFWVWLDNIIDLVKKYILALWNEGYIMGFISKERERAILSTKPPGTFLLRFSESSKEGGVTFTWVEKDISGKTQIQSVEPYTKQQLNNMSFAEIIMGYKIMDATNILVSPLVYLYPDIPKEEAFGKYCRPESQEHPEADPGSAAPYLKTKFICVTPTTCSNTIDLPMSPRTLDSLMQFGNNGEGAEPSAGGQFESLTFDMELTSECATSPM
- assay.notes: STAT3 HiBiT degradation assay in transfected A549 cells
- Format: cell-based
- Set-up: expressed in transfected cells; host or cells: A549
- measurement.setup: A549, 24 h; read-out: STAT3 HiBiT A549 degradation 24 h: Average external-Abs DC50
test.readout: DC50

Count: 3. Required value per item: DC50.
1. CC(=O)N1CC[C@H]2CC[C@@H](C(=O)N[C@@H](CCC(=O)O)COc3cc(C)cc(CCCC(=O)N[C@H](C(=O)N4C[C@H](O)C[C@H]4C(=O)N[C@@H](C)c4ccc(-c5scnc5C)cc4)C(C)(C)C)c3F)N2C(=O)[C@@H](NC(=O)c2cc3cc(C(=O)P(=O)(O)O)ccc3[nH]2)C1
2. Cc1ncsc1-c1ccc(CNC(=O)[C@@H]2C[C@@H](O)CN2C(=O)[C@@H](NC(=O)CCCCCc2ccc(CNC(=O)[C@H](CCC(N)=O)NC(=O)[C@@H]3Cc4cccc5c4N3C(=O)[C@@H](NC(=O)c3cc4cc(C(=O)P(=O)(O)O)ccc4[nH]3)CC5)cc2)C(C)(C)C)cc1
3. Cc1ncsc1-c1ccc(CNC(=O)[C@@H]2C[C@@H](O)CN2C(=O)[C@@H](NC(=O)CCCc2ccc(CNC(=O)[C@H](CCC(N)=O)NC(=O)[C@@H]3Cc4cccc5c4N3C(=O)[C@@H](NC(=O)c3cc4cc(C(=O)P(=O)(O)O)ccc4[nH]3)CC5)cc2)C(C)(C)C)cc1

Result:
< 10 nM
> 1000 nM
> 1000 nM

====

- assay.target: STAT3 (Homo sapiens)
- assay.notes: STAT3 HiBiT degradation assay in transfected A549 cells
- Format: cell-based
- Parameters: expressed in transfected cells; host or cells: A549
- measurement.setup: A549, 24 h; read-out: STAT3 HiBiT A549 degradation 24 h: Average external-Abs DC50
test.readout: DC50

- compound: "Cc1ncsc1-c1ccc([C@H](C)NC(=O)[C@@H]2C[C@@H](O)CN2C(=O)[C@@H](NC(=O)CCCCCc2cccc(CNC(=O)[C@H](CCC(N)=O)NC(=O)[C@@H]3Cc4cccc5c4N3C(=O)[C@@H](NC(=O)c3cc4cc(C(=O)P(=O)(O)O)ccc4[nH]3)CC5)c2)C(C)(C)C)cc1"
  DC50: "100 to 1000 nM"
- compound: "Cc1ncsc1-c1ccc(CNC(=O)[C@@H]2C[C@@H](O)CN2C(=O)[C@@H](NC(=O)CCC/C=C/c2ccc(CO[C@H](C)[C@H](CCC(N)=O)NC(=O)[C@@H]3Cc4cccc5c4N3C(=O)[C@@H](NC(=O)c3cc4cc(C(=O)P(=O)(O)O)ccc4[nH]3)CC5)cc2)C(C)(C)C)cc1"
  DC50: "100 to 1000 nM"
- compound: "CN1C(=O)CCC(n2c(=O)n(C)c3cc(CCCCCCC(=O)N4CC[C@H]5CC[C@@H](C(=O)N[C@@H](CCC(N)=O)C(=O)NC(c6ccccc6)c6ccccc6)N5C(=O)[C@@H](NC(=O)c5cc6cc(C(=O)P(=O)(O)O)ccc6[nH]5)C4)ccc32)C1=O (stereo partly shown)"
  DC50: "> 1000 nM"

Let us examine a further case.
Q: Consider the compound Cc1ncsc1-c1ccc(CNC(=O)[C@@H]2C[C@@H](O)CN2C(=O)[C@@H](NC(=O)CCCCCCCCOC[C@H](CCC(N)=O)NC(=O)[C@@H]2Cc3cccc4c3N2C(=O)[C@@H](NC(=O)c2cc3cc(C(=O)P(=O)(O)O)ccc3[nH]2)CC4)C(C)(C)C)cc1 and give its measured DC50.
Result: > 1000 nM

====

- assay.target: STAT3 (Homo sapiens)
- assay.notes: STAT3 HiBiT degradation assay in transfected A549 cells
- Assay type: cell-based
- Design: expressed in transfected cells; host or cells: A549
- measurement.setup: read-out: STAT3 HiBiT A549 degradation 24 h: Average external-Abs DC50; A549, 24 h
test.readout: DC50

- compound: "Cc1ncsc1-c1ccc([C@H](C)NC(=O)[C@@H]2C[C@@H](O)CN2C(=O)[C@@H](NC(=O)CCCCc2cccc(OC[C@H](CCC(N)=O)NC(=O)[C@@H]3CCCN3C(=O)[C@H](CC(C)C)NC(=O)c3cc4cc(C(=O)P(=O)(O)O)ccc4[nH]3)c2F)C(C)(C)C)cc1 [Compound I-276]"
  DC50: "< 10 nM"
- compound: "Cn1c(=O)n([C@@H]2CCC(=O)NC2=O)c2ccc(C[C@H]3CC[C@@H](CC(=O)N4CC[C@H]5CC[C@@H](C(=O)N[C@@H](CCC(N)=O)C(=O)NC(c6ccccc6)c6ccccc6)N5C(=O)[C@@H](NC(=O)c5cc6cc(C(=O)P(=O)(O)O)ccc6[nH]5)C4)CC3)cc21 [Compound I-234]"
  DC50: "10 to 100 nM"
- compound: "C[C@@H](OCc1ccc(Br)cc1)[C@H](CCC(N)=O)NC(=O)[C@@H]1CC[C@@H]2CCN(C(=O)CCCCCCc3ccc4c(c3)n(C)c(=O)n4C3CCC(=O)NC3=O)C[C@H](NC(=O)c3cc4cc(C(=O)P(=O)(O)O)ccc4[nH]3)C(=O)N21 (stereo partly drawn) [Compound I-183]"
  DC50: "100 to 1000 nM"
- compound: "Cc1ncsc1-c1ccc(CNC(=O)[C@@H]2C[C@@H](O)CN2C(=O)[C@@H](NC(=O)CCCCc2ccc(CO[C@H](C)[C@H](CCC(N)=O)NC(=O)[C@@H]3[C@@H]4C[C@@H]4CN3C(=O)[C@H](CC(C)C)NC(=O)c3cc4cc(C(=O)P(=O)(O)O)ccc4[nH]3)cc2)C(C)(C)C)cc1 [Compound I-137]"
  DC50: "10 to 100 nM"
- compound: "Cn1c(=O)n(C2CCC(=O)NC2=O)c2cc(CCCCCCC(=O)N3CC[C@H]4CC[C@@H](C(=O)N[C@@H](CCC(N)=O)C(=O)NC(c5ccccc5)c5ccccc5)N4C(=O)[C@@H](NC(=O)c4cc5cc(C(=O)P(=O)(O)O)ccc5[nH]4)C3)ccc21 (stereo partly drawn) [Compound I-134]"
  DC50: "> 1000 nM"

Count: 3. Required value per item: DC50.
1. Cn1c(=O)n(C(CCC(N)=O)C(=O)O)c2ccc(C[C@H]3CC[C@@H](CC(=O)N4CC[C@H]5CC[C@@H](C(=O)N[C@@H](CCC(N)=O)C(=O)NC(c6ccccc6)c6ccccc6)N5C(=O)[C@@H](NC(=O)c5cc6cc(C(=O)P(=O)(O)O)ccc6[nH]5)C4)CC3)cc21 (stereo partly drawn) [Compound I-255]
2. CN1C(=O)CCC(N2Cc3c(C#CCCCCCC(=O)N4CC[C@H]5CC[C@@H](C(=O)N[C@@H](CCC(N)=O)C(=O)NC(c6ccccc6)c6ccccc6)N5C(=O)[C@@H](NC(=O)c5cc6cc(C(=O)P(=O)(O)O)ccc6[nH]5)C4)cccc3C2=O)C1=O (stereo in doubt) [Compound I-120]
3. Cn1c(=O)n(C2CCC(=O)NC2=O)c2ccc(CCc3ccccc3CCC(=O)N3CC[C@H]4CC[C@@H](C(=O)N[C@@H](CCC(N)=O)C(=O)NC(c5ccccc5)c5ccccc5)N4C(=O)[C@@H](NC(=O)c4cc5cc(C(=O)P(=O)(O)O)ccc5[nH]4)C3)cc21 (stereo partly drawn) [Compound I-156]

Result:
1: > 1000 nM; 2: > 1000 nM; 3: 100 to 1000 nM

Q: Consider the compound CC(=O)N1CC[C@H]2CC[C@@H](C(=O)N[C@@H](CCC(N)=O)COc3cc(C)cc(CCCCC(=O)N[C@H](C(=O)N4C[C@H](O)C[C@H]4C(=O)N[C@@H](C)c4ccc(-c5scnc5C)cc4)C(C)(C)C)c3F)N2C(=O)[C@@H](NC(=O)c2cc3cc(C(=O)P(=O)(O)O)ccc3[nH]2)C1 [Compound I-236] and give its measured DC50.
Result: 100 to 1000 nM

====

Please respond with reported DC50 for every item in the list.
- assay.target: STAT3 (Homo sapiens)
- assay.notes: STAT3 HiBiT degradation assay in transfected A549 cells
- Assay type: cell-based
- Design: expressed in transfected cells; host or cells: A549
- measurement.setup: A549, 24 h; read-out: STAT3 HiBiT A549 degradation 24 h: Average external-Abs DC50

Use the examples below as a reference point.
- compound: "Cn1c(=O)n(C2CCC(=O)NC2=O)c2ccc(CC3CCC(Cc4cc5c6c(c4)C[C@@H](C(=O)N[C@@H](CCC(N)=O)C(=O)NC(c4ccccc4)c4ccccc4)N6C(=O)[C@@H](NC(=O)c4cc6cc(C(=O)P(=O)(O)O)ccc6[nH]4)CC5)CC3)cc21 (stereo partly shown) [Compound I-245]"
  assay.target: "STAT3 (Homo sapiens)"
  DC50: "100 to 1000 nM"
- compound: "Cc1ncsc1-c1ccc(CNC(=O)[C@@H]2C[C@H](O)CN2C(=O)[C@@H](NC(=O)CCCCc2ccc(CO[C@H](C)[C@H](CCC(N)=O)NC(=O)[C@@H]3Cc4cccc5c4N3C(=O)[C@@H](NC(=O)c3cc4cc(C(=O)P(=O)(O)O)ccc4[nH]3)CC5)cc2)C(C)(C)C)cc1 [Compound I-121]"
  assay.target: "STAT3 (Homo sapiens)"
  DC50: "> 1000 nM"
- compound: "Cn1c(=O)n(C2CCC(=O)NC2=O)c2ccc(CCCCOc3ccc4c5c3CC[C@H](NC(=O)c3cc6cc(C(=O)P(=O)(O)O)ccc6[nH]3)C(=O)N5[C@H](C(=O)N[C@@H](CCC(N)=O)C(=O)NC(c3ccccc3)c3ccccc3)C4)cc21 (stereo partly shown) [Compound I-270]"
  assay.target: "STAT3 (Homo sapiens)"
  DC50: "100 to 1000 nM"
- compound: "CC(=O)N1CC[C@H]2CC[C@@H](C(=O)N[C@@H](CCC(N)=O)C(=O)NCCCCCCCC(=O)N[C@H](C(=O)N3C[C@H](O)C[C@H]3C(=O)NCc3ccc(-c4scnc4C)cc3)C(C)(C)C)N2C(=O)[C@@H](NC(=O)c2cc3cc(C(=O)P(=O)(O)O)ccc3[nH]2)C1 [Compound I-172]"
  assay.target: "STAT3 (Homo sapiens)"
  DC50: "> 1000 nM"
- compound: "Cc1ncsc1-c1ccc([C@H](C)NC(=O)[C@@H]2C[C@@H](O)CN2C(=O)[C@@H](NC(=O)CCCCCc2cc(Cl)cc(OC[C@H](CCC(N)=O)NC(=O)[C@@H]3Cc4cccc5c4N3C(=O)[C@@H](NC(=O)c3cc4cc(C(=O)P(=O)(O)O)ccc4[nH]3)CC5)c2F)C(C)(C)C)cc1 [Compound I-244]"
  assay.target: "STAT3 (Homo sapiens)"
  DC50: "< 10 nM"
- compound: "Cn1c(=O)n(C2CCC(=O)NC2=O)c2ccc(N3CCC(CCCC(=O)N4CC[C@H]5CC[C@@H](C(=O)N[C@@H](CCC(N)=O)C(=O)NC(c6ccccc6)c6ccccc6)N5C(=O)[C@@H](NC(=O)c5cc6cc(C(=O)P(=O)(O)O)ccc6[nH]5)C4)CC3)cc21 (stereo partly shown) [Compound I-128]"
  assay.target: "STAT3 (Homo sapiens)"
  DC50: "100 to 1000 nM"

Let us examine a further case.
Q: Consider the compound Cc1ncsc1-c1ccc([C@H](C)NC(=O)[C@@H]2C[C@@H](O)CN2C(=O)[C@@H](NC(=O)CCCc2cccc(OC[C@@H](NC(=O)[C@@H]3Cc4cccc5c4N3C(=O)[C@@H](NC(=O)c3cc4cc(C(=O)P(=O)(O)O)ccc4[nH]3)CC5)C(N)=O)c2)C(C)(C)C)cc1 [Compound I-194] and give its measured DC50.
Result: 10 to 100 nM
